biological target: anthranilate phosphoribosyl transferase (PRT); test: Feedback inhibition of anthranilate phosphoribosyl transferase (PRT) activity by tryptophan; format: biochemical, Corynebacterium glutamicum; details: PRT of TA108 strain carrying pCtrp1; read-out: Tryptophan concentration for 50% inhibiting the PRT activity
readout-type: IC50 (µM)
Give bare numbers, in µM.

Q) Form field: reported IC50 of "N[C@@H](Cc1c[nH]c2ccccc12)C(=O)O"
A) 190
